Data origin, for the record: patent US10259810B2

measured-on: CFTR ΔF508 (Homo sapiens, UniProt P13569, DEL508-508)
Construct: bronchial epithelial cells isolated from CF patients homozygous for the CFTR ΔF508 mutation; McGill University; Asterand; University of North Carolina hAEC-CF; host or cells: primary human bronchial epithelial cells from CF patients homozygous for ΔF508, differentiated at air-liquid interface
Sequence (P13569 with tags, fused parts or gaps DEL508-508): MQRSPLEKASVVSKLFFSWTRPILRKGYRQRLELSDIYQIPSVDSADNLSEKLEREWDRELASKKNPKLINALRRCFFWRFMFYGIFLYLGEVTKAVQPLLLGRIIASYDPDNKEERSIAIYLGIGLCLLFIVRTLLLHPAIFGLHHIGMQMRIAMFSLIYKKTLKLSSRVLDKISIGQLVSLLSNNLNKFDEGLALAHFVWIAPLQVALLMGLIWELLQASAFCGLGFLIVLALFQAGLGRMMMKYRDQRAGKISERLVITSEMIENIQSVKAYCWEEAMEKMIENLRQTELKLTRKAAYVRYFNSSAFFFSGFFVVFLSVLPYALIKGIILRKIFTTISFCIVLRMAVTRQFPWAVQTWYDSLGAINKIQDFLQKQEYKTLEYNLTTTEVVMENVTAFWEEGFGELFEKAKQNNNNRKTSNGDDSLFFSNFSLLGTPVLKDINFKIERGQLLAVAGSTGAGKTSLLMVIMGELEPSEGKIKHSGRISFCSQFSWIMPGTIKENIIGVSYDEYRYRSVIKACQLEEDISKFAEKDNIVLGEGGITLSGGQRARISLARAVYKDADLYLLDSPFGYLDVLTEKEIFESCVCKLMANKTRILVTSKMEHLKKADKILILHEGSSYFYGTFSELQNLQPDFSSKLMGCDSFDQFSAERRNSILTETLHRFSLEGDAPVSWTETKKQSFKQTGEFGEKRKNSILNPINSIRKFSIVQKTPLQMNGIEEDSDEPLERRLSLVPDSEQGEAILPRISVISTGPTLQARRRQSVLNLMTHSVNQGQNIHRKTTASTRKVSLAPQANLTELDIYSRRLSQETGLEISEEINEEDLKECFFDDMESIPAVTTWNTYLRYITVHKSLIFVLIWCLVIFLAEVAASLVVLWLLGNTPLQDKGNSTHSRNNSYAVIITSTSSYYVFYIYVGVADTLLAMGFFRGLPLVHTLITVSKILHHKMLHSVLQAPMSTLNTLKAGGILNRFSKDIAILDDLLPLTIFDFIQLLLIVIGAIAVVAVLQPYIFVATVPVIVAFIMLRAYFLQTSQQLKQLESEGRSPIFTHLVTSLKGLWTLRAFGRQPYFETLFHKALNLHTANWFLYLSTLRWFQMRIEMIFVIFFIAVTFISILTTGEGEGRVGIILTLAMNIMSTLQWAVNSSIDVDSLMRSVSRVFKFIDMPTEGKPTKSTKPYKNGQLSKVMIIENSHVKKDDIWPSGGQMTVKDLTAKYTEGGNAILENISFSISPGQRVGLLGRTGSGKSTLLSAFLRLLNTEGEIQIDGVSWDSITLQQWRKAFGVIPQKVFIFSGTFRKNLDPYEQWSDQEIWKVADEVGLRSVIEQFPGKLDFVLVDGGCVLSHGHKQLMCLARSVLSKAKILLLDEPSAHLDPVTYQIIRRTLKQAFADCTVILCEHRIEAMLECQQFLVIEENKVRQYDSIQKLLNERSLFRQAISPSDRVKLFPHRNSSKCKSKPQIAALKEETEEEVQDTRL
test-description: Chronic TECC assay, primary bronchial epithelial cells of CF patients homozygous for CFTR ΔF508 (corrector, co-corrector and potentiator)
Format: cell-based
particulars: chronic TECC; test compound at 1 μM; AUC = full area under the curve upon forskolin stimulation
Procedure: Primary Bronchial Epithelial Cells Protocol The TECC (Tranepithelial Clamp Circuit, EP-design) assay measures the functionality of the cystic fibrosis Transmembrane Conductance regulator (CFTR) by measuring the short circuit current (Isc) generated over the basolateral and apical membrane of lung epithelial cells. In TECC the transepithelial potential PD and transepithelial resistance (Rt) are measured in an open circuit and transformed to Ieq using Ohm's law. […]
// % Activity at 1 μM (AUC**) lookup, one value per entry

compound	% Activity at 1 μM (AUC**) / %
COC1CCN(c2cc(C(=O)NS(C)(=O)=O)nc3c2c(C(C)C)nn3-c2ccnc(N3CCOCC3)c2)CC1 [Compound 187]	180
COC1CCN(c2cc(C(=O)NS(C)(=O)=O)nc3c2c(C2CCC2)nn3-c2ccccc2)CC1 [Compound 142]	250
CS(=O)(=O)NC(=O)c1cc(N2CCC(N3CCOCC3)CC2)c2c(C3CCC3)nn(-c3ccc(F)cc3)c2n1 [Compound 421]	193.3333
